Where these numbers come from: ChEMBL document CHEMBL3045318

- Test system: Enterococcus faecalis
- test-description: Antimicrobial activity against Enterococcus faecalis after 24 hr by serial dilution method
- Type: functional
value-kind: MIC (µg/mL)
Give the number; µg/mL is assumed, so skip it.

Before answering, review these 5 worked examples.
INSERT INTO results (molecule, result_value) VALUES
  ('CC1C(=O)C(C)C(c2ccco2)NC1c1ccco1 (stereo unspecified)', 50),
  ('CN[C@@H]1[C@H](O[C@H]2[C@H](O[C@H]3[C@H](O)[C@@H](O)[C@H](N=C(N)N)[C@@H](O)[C@@H]3N=C(N)N)O[C@@H](C)[C@]2(O)C=O)O[C@@H](CO)[C@H](O)[C@H]1O [STREPTOMYCIN]', 50),
  ('CC1C(=NO)C(C)C(c2ccco2)NC1c1ccco1 (stereo unspecified)', 25),
  ('CCC1C(=O)CC(c2ccco2)NC1c1ccco1 (stereo unspecified)', 100),
  ('CCC1/C(=N\O)CC(c2ccco2)NC1c1ccco1 (stereo unspecified)', 25);

Now look at this one.
**Query** What does the record list as MIC for CC1/C(=N\O)CC(c2ccco2)NC1c1ccco1 (stereo unspecified) ?
**Result** 25
